Source: patent US10703746B2

- targetUnderTest: IDH1 R132C (Homo sapiens, UniProt O75874, R132C)
- Sequence (O75874 whole entry R132C): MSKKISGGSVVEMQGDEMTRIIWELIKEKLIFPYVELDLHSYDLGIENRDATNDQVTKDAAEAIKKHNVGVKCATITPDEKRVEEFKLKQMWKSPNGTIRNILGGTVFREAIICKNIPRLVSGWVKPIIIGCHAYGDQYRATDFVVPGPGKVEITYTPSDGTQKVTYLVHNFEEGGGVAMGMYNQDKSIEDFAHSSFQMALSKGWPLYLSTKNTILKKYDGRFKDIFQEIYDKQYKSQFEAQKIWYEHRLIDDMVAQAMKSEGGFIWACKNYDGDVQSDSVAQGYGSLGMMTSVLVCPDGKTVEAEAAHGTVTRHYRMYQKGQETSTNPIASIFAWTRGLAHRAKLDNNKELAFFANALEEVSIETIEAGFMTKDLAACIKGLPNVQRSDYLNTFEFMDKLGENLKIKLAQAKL
- assayInfo: IDH1 R132C enzymatic assay (NADPH depletion coupled to diaphorase/resazurin)
- Assay type: biochemical
- assaySetup: enzymatic inhibition, IDH1 R132C
Recorded IC50 by entry

Worked examples, 4 compounds total:
compound: CCc1cccc(CC)c1-n1c(C=C(C)C)c(C(=O)N2CCN[C@@H](C(=O)O)C2)cc(-c2nc(-c3ccc(C(F)(F)F)cc3)cs2)c1=O
IC50: < 0.3 µM
//
compound: CCc1cccc(CC)c1-n1c(CC(C)C)c(C(=O)N2CCNCC2)cc(-c2nc(-c3ccc(Cl)nc3)c(C)s2)c1=O
IC50: < 0.3 µM
//
compound: CCc1cccc(CC)c1-n1c2c(cc(-c3nc(-c4ccc(Cl)cc4)cs3)c1=O)C(=O)CCC2
IC50: 1 to 5 µM
//
compound: CCc1cccc(CC)c1-n1c(C=C(C)C)c(C(=O)N2CCNC(C(=O)O)C2)cc(-c2nc(-c3ccc(Cl)cc3)cs2)c1=O (stereo not shown)
IC50: < 0.3 µM

Please look up its IC50: CCc1cccc(CC)c1-n1c(C)c(C(=O)N2CCNCC2)c(O)c(-c2nc(-c3ccc(Cl)cc3)cs2)c1=O
1 to 5 µM

GET /values?readout=IC50&item= Cc1ccc(CN2CCN(C)CC2)cc1-n1c2c(cc(-c3nc(-c4ccc(Cl)cc4)cs3)c1=O)C(=O)CCC2
> 20 µM

May I ask what IC50 has been recorded for CCc1cccc(C)c1-n1c(C)c(C(=O)N2CCNCC2)cc(-c2nc(-c3ccc(Cl)cc3)cs2)c1=O ?
1 to 5 µM

###

Listed next: entries and their corresponding IC50.
- targetUnderTest: IDH1 R132C (Homo sapiens, UniProt O75874, R132C)
- assayInfo: IDH1 R132C enzymatic assay (NADPH depletion coupled to diaphorase/resazurin)
- Type: biochemical
- assaySetup: IDH1 R132C enzymatic inhibition, IC50 class

Example molecules with recorded IC50:
molecule: CCc1cccc(CC)c1-n1c(CC(C)C)c(C(=O)N2CC(C(=O)O)NCC2C)cc(-c2nc(-c3ccc(Cl)cc3)cs2)c1=O (stereo not shown)
IC50: < 300 nM

molecule: CCCSc1ccccc1-n1c2c(cc(-c3nc(-c4ccc(Cl)cc4)cs3)c1=O)C(=O)CC(C)(C)C2
IC50: 300 to 1000 nM

molecule: CCc1cccc(CC)c1-n1c(CC(C)C)c(C(=O)N2CCNCC2C)cc(-c2nc(-c3ccc(Cl)cc3)cs2)c1=O (stereo not shown)
IC50: < 300 nM

IC50 for CCc1cccc(CC)c1-n1c(C)c(C(=O)N2CCCCC2C(=O)O)cc(-c2nc(-c3ccc(Cl)cc3)cs2)c1=O (stereo not shown) ?
5000 to 20000 nM

What value of IC50 has been reported for the following molecule? COc1ccc(-c2csc(-c3cc4c(n(-c5ccccc5C(F)(F)F)c3=O)CC(C)(C)CC4=O)n2)cc1
300 to 1000 nM

I'd like to know its IC50. The molecule in question is CCc1cccc(CC)c1-n1c(CC(C)C)c(C(=O)N2CCNC(C)C2)cc(-c2nc(-c3ccc(Cl)cc3)cs2)c1=O (stereo not shown)
< 300 nM

What IC50 value was documented for this molecule, CCc1cccc(C)c1-n1c2c(cc(-c3nc(-c4ccc(Cl)cc4)cs3)c1=O)C(=O)CCC2 ?
1000 to 5000 nM

###

- targetUnderTest: IDH1 R132C (Homo sapiens, UniProt O75874, R132C)
- assayInfo: IDH1 R132C enzymatic assay (NADPH depletion coupled to diaphorase/resazurin)
- Type: biochemical
- assaySetup: IDH1 R132C enzymatic inhibition, IC50 class
Reported IC50 by item:

Sample records with IC50:
compound: COc1ccc(OC)c(-n2c3c(cc(-c4nc(-c5ccc(Cl)cc5)cs4)c2=O)C(=O)CCC3)c1
result: 1000 to 5000 nM

compound: CC1(C)CC(=O)c2cc(-c3nc(-c4ccc(F)cc4)cs3)c(=O)n(-c3ccccc3C(F)(F)F)c2C1
result: 300 to 1000 nM

compound: CCc1cccc(CC)c1-n1c(C=C(C)C)c(C(=O)N2CCNCC2CC(C)C)cc(-c2nc(-c3ccc(Cl)cc3)cs2)c1=O (centres unmarked)
result: < 300 nM

compound: CCc1ccc(F)cc1-n1c(C=C(C)C)c(C(=O)N2CCNCC2)cc(-c2nc(-c3ccc(Cl)cc3)cs2)c1=O
result: < 300 nM

compound: CCc1cccc(CC)c1-n1c2c(cc(-c3nc(-c4ccc(Cl)cc4)c(C)s3)c1=O)C(=O)CC(C)(C)C2
result: < 300 nM

compound: COc1ccc(OC)c(-n2c3c(cc(-c4nnn(-c5ccc(Cl)cc5)n4)c2=O)C(=O)CC(C)(C)C3)c1
result: 1000 to 5000 nM

Hi! What's the reported IC50 for CCc1cccc(CC)c1-n1c(C)c(C(=O)NCC(C)C)cc(-c2nc(-c3ccc(Cl)cc3)cs2)c1=O on IDH1 R132C (Homo sapiens, UniProt O75874, R132C)?
1000 to 5000 nM

Query the reported IC50 for IDH1 R132C (Homo sapiens, UniProt O75874, R132C); item: CC1(C)CC(=O)c2cc(-c3nc(-c4ccc(Cl)cc4)cs3)c(=O)n(-c3ccccc3C(C)(C)C)c2C1
300 to 1000 nM

Give recorded IC50 with IDH1 R132C (Homo sapiens, UniProt O75874, R132C) for the following compound: CCc1cccc(CC)c1-n1c(CC(C)C)c(C(=O)N2CCNCC2)cc(-c2nc(-c3ccc(C(N)=O)cc3)c(C)s2)c1=O
5000 to 20000 nM

# returns recorded IC50 (system: IDH1 R132C (Homo sapiens, UniProt O75874, R132C)) for COc1ccc(OC)c(-n2c3c(cc(-c4cccc(-c5ccc(Cl)cc5)n4)c2=O)C(=O)CC(C)(C)C3)c1
5000 to 20000 nM

Please provide the recorded IC50 for CCc1cccc(CC)c1-n1c(C)c(C(=O)NCCCN)cc(-c2nc(-c3ccc(Cl)cc3)cs2)c1=O , tested on IDH1 R132C (Homo sapiens, UniProt O75874, R132C).
1000 to 5000 nM

Test system IDH1 R132C (Homo sapiens, UniProt O75874, R132C); read-out IC50; what value for CCc1ncc(F)cc1-n1c(C=C(C)C)c(C(=O)N2CCNCC2)cc(-c2nc(-c3ccc(C(F)(F)F)nc3)cs2)c1=O ?
1000 to 5000 nM

Give the reported IC50 for CCc1cccc(CC)c1-n1c(CC(C)C)c(C(=O)NCCO)cc(-c2nc(-c3ccc(Cl)cc3)cs2)c1=O (system: IDH1 R132C (Homo sapiens, UniProt O75874, R132C)).
300 to 1000 nM

For IDH1 R132C (Homo sapiens, UniProt O75874, R132C), provide IC50 of Cc1cccc(C)c1-n1c2c(cc(-c3nc(-c4ccc(Cl)cc4)cs3)c1=O)C(=O)CC(C)(C)C2 please.
1000 to 5000 nM

###

- targetUnderTest: IDH1 R132C (Homo sapiens, UniProt O75874, R132C)
- assayInfo: IDH1 R132C enzymatic assay (NADPH depletion coupled to diaphorase/resazurin)
- Assay type: biochemical
- assaySetup: IDH1 R132C enzymatic inhibition, IC50 class
pIC50: −log10 of the molar value.
propertyName: pIC50

Examples from the recorded data:
compound: COc1ccc(OC)c(-n2c3c(cc(-c4nc(C)cs4)c2=O)C(=O)CC(C)(C)C3)c1
targetUnderTest: IDH1 R132C (Homo sapiens, UniProt O75874, R132C)
pIC50: 4.70 to 5.30
--
compound: CC(=O)c1ccccc1-n1c2c(cc(-c3nc(-c4ccc(Cl)cc4)cs3)c1=O)C(=O)CC(C)(C)C2
targetUnderTest: IDH1 R132C (Homo sapiens, UniProt O75874, R132C)
pIC50: 5.30 to 6.00
--
compound: CCc1cccc(CC)c1-n1c(CC(C)C)c(C(=O)N[C@H](C)CO)cc(-c2nc(-c3ccc(Cl)cc3)cs2)c1=O
targetUnderTest: IDH1 R132C (Homo sapiens, UniProt O75874, R132C)
pIC50: 6.00 to 6.52
--
compound: CCc1cccc(CC)c1-n1c(CC(C)C)c(C(=O)N2CCN[C@@H](CO)C2)cc(-c2nc(-c3ccc(Cl)cc3)cs2)c1=O
targetUnderTest: IDH1 R132C (Homo sapiens, UniProt O75874, R132C)
pIC50: > 6.52
--
compound: CCc1cccc(CC)c1-n1c(CC(C)C)c(C(=O)N2CCNCC2)cc(-c2nc(-c3ccccc3)c(C)s2)c1=O
targetUnderTest: IDH1 R132C (Homo sapiens, UniProt O75874, R132C)
pIC50: 6.00 to 6.52
--
compound: CC1(C)CC(=O)c2cc(-c3nc(-c4ccc(Cl)cc4)cs3)c(=O)n(C3CCCc4ccccc43)c2C1 (stereo not shown)
targetUnderTest: IDH1 R132C (Homo sapiens, UniProt O75874, R132C)
pIC50: 6.00 to 6.52

Field: next compound
Given the compound CCc1cccc(CC)c1-n1c(CC(C)C)c(C(=O)NC2CCNCC2)cc(-c2nc(-c3ccc(Cl)cc3)cs2)c1=O , what is its reported pIC50?
> 6.52
